Assay System: FGFR2 (Homo sapiens, UniProt P21802)
Sequence (P21802 399-821 limits assumed): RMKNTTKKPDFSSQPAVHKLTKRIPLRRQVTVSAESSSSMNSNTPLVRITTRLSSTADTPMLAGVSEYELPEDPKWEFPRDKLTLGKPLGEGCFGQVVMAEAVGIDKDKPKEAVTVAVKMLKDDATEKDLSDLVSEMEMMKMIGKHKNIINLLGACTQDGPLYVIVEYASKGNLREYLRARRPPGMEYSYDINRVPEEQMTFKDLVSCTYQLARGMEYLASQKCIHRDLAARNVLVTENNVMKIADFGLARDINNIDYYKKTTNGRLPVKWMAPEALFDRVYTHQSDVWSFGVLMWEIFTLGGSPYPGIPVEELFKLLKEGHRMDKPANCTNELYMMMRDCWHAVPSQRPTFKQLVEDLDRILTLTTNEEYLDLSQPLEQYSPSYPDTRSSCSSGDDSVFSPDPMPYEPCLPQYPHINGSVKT
Test Name: FGFR wild type enzyme assay (HTRF KinEASE-TK), FGFR2
Run Parameters: Enz FGFR2 (nM), FGFR2 wild type enzyme assay
List of IC50 values.
Numbers only; they are read as nM.

These recorded examples may help you get a feel for the data.
1) Cc1c(-c2cc(Sc3ncc(F)cc3F)c3c(C#N)cnn3c2)cnn1[C@H]1CCCN(C)C1 [Example 346] : 5
2) Cc1c(-c2cc(Sc3ccc(F)cc3C#N)c3c(C#N)cnn3c2)cnn1[C@H]1CCCC[C@@H]1O [Example 633] : 1
3) N#Cc1cnn2cc(-c3cnn([C@H]4CCN(C(=O)CO)C4)c3)cc(Sc3ncccc3F)c12 [Example 451] : 1
4) CC1(C)CC[C@H](n2cc(-c3cc(Sc4ccccc4C#N)c4c(C#N)cnn4c3)cn2)CN1 [Example 593] : 1
5) N#Cc1cnn2cc(-c3ccc(N4CCNCC4)nc3)cc(Sc3ncccc3F)c12 [Example 553] : 1
6) Cc1c(-c2cc(Sc3ccc(F)cc3C#N)c3c(C#N)cnn3c2)cnn1C1CCC(C)(C)NC1 (stereo in doubt) [Example 529] : 1

# input for lookup
Please indicate IC50 recorded for N#Cc1ccccc1Sc1cc(-c2cnn([C@@H]3CCNC(=O)C3)c2)cn2ncc(C#N)c12 [Example 591]
0.4
